Target Entity: Protein smoothened (Mus musculus, UniProt P56726)
Sequence (P56726 whole entry): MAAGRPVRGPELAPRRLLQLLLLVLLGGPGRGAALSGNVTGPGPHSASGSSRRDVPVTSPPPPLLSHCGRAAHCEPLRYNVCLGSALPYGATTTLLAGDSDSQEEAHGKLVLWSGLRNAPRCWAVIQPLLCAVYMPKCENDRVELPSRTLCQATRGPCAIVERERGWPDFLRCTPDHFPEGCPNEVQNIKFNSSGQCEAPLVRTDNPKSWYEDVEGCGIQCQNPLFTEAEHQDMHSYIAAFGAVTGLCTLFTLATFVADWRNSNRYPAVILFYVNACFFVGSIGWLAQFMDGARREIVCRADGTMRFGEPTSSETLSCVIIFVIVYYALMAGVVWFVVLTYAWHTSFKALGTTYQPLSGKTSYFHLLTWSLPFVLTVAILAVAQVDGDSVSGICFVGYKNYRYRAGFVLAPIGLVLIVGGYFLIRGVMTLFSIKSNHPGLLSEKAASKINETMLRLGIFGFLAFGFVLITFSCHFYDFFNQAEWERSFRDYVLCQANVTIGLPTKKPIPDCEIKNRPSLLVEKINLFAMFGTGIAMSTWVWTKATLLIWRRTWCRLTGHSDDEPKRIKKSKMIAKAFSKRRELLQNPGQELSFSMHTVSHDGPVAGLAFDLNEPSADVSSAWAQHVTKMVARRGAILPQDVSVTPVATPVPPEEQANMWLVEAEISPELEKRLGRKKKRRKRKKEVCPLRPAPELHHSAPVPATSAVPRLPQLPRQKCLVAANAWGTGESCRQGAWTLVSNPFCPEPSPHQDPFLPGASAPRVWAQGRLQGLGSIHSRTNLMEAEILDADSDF
Run Description: Antagonist activity at SMO in mouse NIH/3T3 cells harboring Gli-responsive firefly luciferase gene assessed as inhibition of SAG-induced response preincubated for 2 hrs followed by SAG addition and measured after 24 hrs by Bright-Glo luciferase assay
pIC50: −log10 of the molar value.
Readout Label: pIC50

C[C@H]1C(=O)N(Cc2ccc(Cl)cc2)C(=O)N1Cc1ccccc1; 5.09
C[C@H]1C(=O)N(c2ccc(Cl)cc2)C(=O)N1Cc1c(F)c(F)c(F)c(F)c1F; 5.13
C[C@H]1C(=O)N(C2CCCCC2)C(=O)N1Cc1ccccc1; 5.10

----------
Target Entity: Protein smoothened (Mus musculus)
Run Description: Antagonist activity at SMO in mouse NIH/3T3 cells harboring Gli-responsive firefly luciferase gene assessed as inhibition of SAG-induced response preincubated for 2 hrs followed by SAG addition and measured after 24 hrs by Bright-Glo luciferase assay
Readout Label: IC50 (µM)

(A) C#CCOc1ccc(N2C(=O)[C@H](C)N(Cc3ccc(N=[N+]=[N-])cc3)C2=O)cc1
(B) C[C@H]1C(=O)N(c2ccc(Cl)cc2)C(=O)N1Cc1ccc(N=[N+]=[N-])cc1
Which numeric IC50 is bigger, that of A or that of B ? Your answer should be the label of the entry you select.
A

(A) C[C@H]1CN(c2ccc(Cl)cc2)C(=O)N1Cc1ccccc1
(B) C[C@H]1C(=O)N(c2c(F)c(F)c(F)c(F)c2F)C(=O)N1Cc1ccccc1
(C) C[C@H]1C(=O)N(c2ccc(Cl)cc2)C(=O)N1CC1CCCCC1
Reorder: IC50, max to min. Please write the labels in the order that was asked for.
A, B, C
(A: 4.55 µM, B: 1.53 µM, C: 0.383 µM)

(A) C[C@H]1C(=O)N(c2ccc(Cl)cc2)C(=O)N1CCc1ccccc1
(B) C[C@H]1C(=O)N(c2ccc(Cl)cc2)C(=O)N1c1ccccc1
(C) C[C@H]1C(=O)N(c2ccc(Cl)cc2)C(=O)N1Cc1ccccc1
(D) C[C@H]1C(=O)N(c2ccc(Cl)cc2)C(=S)N1Cc1ccccc1
Reorder: IC50, max to min. Please write the labels in the order that was asked for.
D, B, A, C
